PROTOCOL DESCRIPTION: qHTS Assay for Lipid Storage Modulators in Drosophila S3 Cells
CONDITION PARAMETERS: BODIPY lipid droplet fluorescence, 18-24 h, cells fed with added oleic acid; series mostly up to 46.1 µM
Text: NIH Molecular Libraries Probe Production Centers Network [MLPCN] NIH Chemical Genomics Center [NCGC] […] Triacsin C (Sigma-Aldrich T-4540), an inhibitor of long-chain fatty acyl CoA synthetase that blocks synthesis of triglycerides, was used as a positive control for lipid under-storage. […] Fluorescence was detected by excitation of the fluorophores with a 488-nm laser on an Acumen Explorer (TTP Lab Tech). […] Cells were detected using channel 3 (575-640 nm) with 5-um width and 100-um depth filters. […]
In all, about 320,000 compounds went through this assay and about 2,100 (0.66%) were called active. Inconclusive results (about 53%) are left out. Calls follow the shape of the dose curve; as a rule, active = well fitted inhibition curve with a large enough effect in the signal ratio, with a control signal flat (not every such curve was filed as active); inconclusive = small, poorly fitted or top-dose-only effect, or effect the other way, or a change in a side signal; inactive = flat fitted curve, though single readings scatter; the % refers to the signal ratio. The sample holds actives, similar compounds and a random draw of the others, so the mix is not that of the screen.
Hello, when you answer, please use one of the following outcomes: active, inactive

CHEMICAL STRUCTURE: COc1ccc(C(=O)Nc2ccc(Cl)cc2C(=O)N2CCOCC2)cc1
CAT: inactive

CHEMICAL STRUCTURE: O=C(NCCc1ccncc1)Nc1ccc(F)cc1
CAT: inactive

CHEMICAL STRUCTURE: CCn1cc(CNC(=O)/C=C/c2ccc([N+](=O)[O-])cc2)cn1
CAT: inactive

Req: Test call, this compound: O=C(NCCc1ccc(Cl)cc1)Nc1ccc(F)cc1
Resp: inactive

Req: Test call, this compound: CN(C)C(=O)c1cc(C(=O)c2ccccc2Br)c[nH]1
Resp: inactive

Req: Test call, this compound: O=C(NCCc1ccc(F)cc1)Nc1ccc([N+](=O)[O-])cc1
Resp: active
